Taken from ChEMBL document CHEMBL1131445.

Would you mind telling me the reported Pc of each entry?
Species: Homo sapiens
Assay: Mono layer permeability of human intestinal Caco-2 cells
Format: ADME, cell-based
Lab book: enter the figure in ×10⁻⁶ cm/s, no units written.

Q: Name the recorded Pc for C=CCc1ccccc1OCC(O)CNC(C)C (stereo not drawn) .
Ans: 242

Q: Name the recorded Pc for CC(C)NCC(O)COc1cccc2[nH]ccc12 (stereo not drawn) .
Ans: 54.7

Q: Name the recorded Pc for COCCc1ccc(OCC(O)CNC(C)C)cc1 (stereo not drawn) .
Ans: 91.9

Q: Name the recorded Pc for C=CCOc1ccccc1OCC(O)CNC(C)C (stereo not drawn) .
Ans: 119.6

Q: Name the recorded Pc for O=C(NCCNCC(O)COc1ccc(CCOCCOCC2CC2)cc1)N1CCC(O)CC1 (stereo not drawn) .
Ans: 0.104

Q: Name the recorded Pc for CC(C)NCC(O)COc1ccc(NC=O)cc1 (stereo not drawn) .
Ans: 3.75

Q: Name the recorded Pc for CC(=O)Nc1ccc(OCC(O)CNC(C)C)cc1 (stereo not drawn) .
Ans: 3.46

Q: Name the recorded Pc for CCC(=O)Nc1ccc(OCC(O)CNC(C)C)cc1 (stereo not drawn) .
Ans: 6.03
